# measurement.description: Inhibition of HCV NS3 4A protease
# Parameters: species or system Hepacivirus hominis
measured.attribute: Ki (nM)

Here is how some compounds turned out for Ki.
CCC[C@H](NC(=O)[C@@H]1C[C@@H]2CCCC[C@@H]2N1C(=O)[C@@H](NC(=O)[C@@H](NC(=O)c1cc2cc(F)ccc2[nH]1)C1CCCCC1)C(C)(C)C)C(=O)C(=O)NC1CC1 120
CCC[C@H](NC(=O)[C@@H]1C[C@@H]2CCCC[C@@H]2N1C(=O)[C@@H](NC(=O)[C@@H](NC(=O)C(=O)NC(C)C)C1CCCCC1)C(C)(C)C)C(=O)C(=O)NC1CC1 160

[A] CCC[C@H](NC(=O)[C@@H]1C[C@@H]2CCCC[C@@H]2N1C(=O)[C@@H](NC(=O)[C@@H](NC(=O)c1cnccn1)C1CCCCC1)C(C)(C)C)C(=O)C(=O)NC1CC1
[B] CCC[C@H](NC(=O)[C@@H]1C[C@@H]2CCCC[C@@H]2N1C(=O)[C@@H](NC(=O)[C@@H](NC(=O)c1cc([N+](=O)[O-])c[nH]1)C1CCCCC1)C(C)(C)C)C(=O)C(=O)NC1CC1
[C] CCC[C@H](NC(=O)[C@@H]1C[C@@H]2CCCC[C@@H]2N1C(=O)[C@@H](NC(=O)[C@@H](NC(=O)c1nccn1C)C1CCCCC1)C(C)(C)C)C(=O)C(=O)NC1CC1
Order the items by recorded Ki; the first position goes to the largest value. Submit the labels in the order that the ranking request calls for.
C, A, B
(C: 1200 nM, A: 150 nM, B: 50 nM)

====

# System: Mus musculus
# measurement.description: AUC(0 to 8 hrs) in CD1 mouse plasma at 50 mg/kg, po
# Type: ADME, organism-based
# Parameters: dose 50 mg/kg, route oral
# experimental.setup: in vivo, 6 h
measured.attribute: AUC (µM·h)

CCC[C@H](NC(=O)[C@@H]1C[C@@H]2CCCC[C@@H]2N1C(=O)[C@@H](NC(=O)[C@@H](NC(=O)c1ccc[nH]1)C1CCCCC1)C(C)(C)C)C(=O)C(=O)NC1CC1 0.36

[1] CCC[C@H](NC(=O)[C@@H]1[C@H]2CCC[C@H]2CN1C(=O)[C@@H](NC(=O)[C@@H](NC(=O)c1cnccn1)C1CCCCC1)C(C)(C)C)C(=O)C(=O)NC1CC1
[2] CCC[C@H](NC(=O)[C@@H]1C[C@@H]2CCCC[C@@H]2N1C(=O)[C@@H](NC(=O)[C@@H](NC(=O)c1nccn1C)C1CCCCC1)C(C)(C)C)C(=O)C(=O)NC1CC1
[3] CCC[C@H](NC(=O)[C@@H]1[C@H]2CCC[C@H]2CN1C(=O)[C@@H](NC(=O)[C@@H](NC(=O)c1ncc[nH]1)C1CCCCC1)C(C)(C)C)C(=O)C(=O)NC1CC1
[4] CCC[C@H](NC(=O)[C@@H]1C[C@@H]2CCCC[C@@H]2N1C(=O)[C@@H](NC(=O)[C@@H](NC(=O)c1ncc[nH]1)C1CCCCC1)C(C)(C)C)C(=O)C(=O)NC1CC1
Order the items by recorded AUC; the first position goes to the largest value. Submit the labels in the order that the ranking request calls for.
1, 2, 3, 4
(1: 3 µM·h, 2: 1.3 µM·h, 3: 0.36 µM·h, 4: 0.05 µM·h)

====

# measurement.description: Ratio of drug level in CD1 mouse liver to IC50 for HCV
# Format: functional, tissue-based
Reported Ratio by item:
Could you respond with only the numeric value?

Here is how some compounds turned out for Ratio.
CCC[C@H](NC(=O)[C@@H]1C[C@@H]2CCCC[C@@H]2N1C(=O)[C@@H](NC(=O)[C@@H](NC(=O)c1ccc[nH]1)C1CCCCC1)C(C)(C)C)C(=O)C(=O)NC1CC1 0.34
CCC[C@H](NC(=O)[C@@H]1C[C@@H]2CCCC[C@@H]2N1C(=O)[C@@H](NC(=O)[C@@H](NC(=O)c1cc([N+](=O)[O-])c[nH]1)C1CCCCC1)C(C)(C)C)C(=O)C(=O)NC1CC1 0.03
CCC[C@H](NC(=O)[C@@H]1[C@H]2CCC[C@H]2CN1C(=O)[C@@H](NC(=O)[C@@H](NC(=O)c1cnccn1)C1CCCCC1)C(C)(C)C)C(=O)C(=O)NC1CC1 54
CCC[C@H](NC(=O)[C@@H]1[C@H]2CCC[C@H]2CN1C(=O)[C@@H](NC(=O)[C@@H](NC(=O)c1ncc[nH]1)C1CCCCC1)C(C)(C)C)C(=O)C(=O)NC1CC1 52
CCC[C@H](NC(=O)[C@@H]1C[C@@H]2CCCC[C@@H]2N1C(=O)[C@@H](NC(=O)[C@@H](NC(=O)c1cnccn1)C1CCCCC1)C(C)(C)C)C(=O)C(=O)NC1CC1 0.33

Next:
Output measured Ratio for this item: `CCC[C@H](NC(=O)[C@@H]1C[C@@H]2CCCC[C@@H]2N1C(=O)[C@@H](NC(=O)[C@@H](NC(=O)c1ncc[nH]1)C1CCCCC1)C(C)(C)C)C(=O)C(=O)NC1CC1`
0.26

====

# measurement.description: Inhibition of HCV NS3 4A protease
# Parameters: species or system Hepacivirus hominis
pKi: −log10 of the molar value.
measured.attribute: pKi

CCC[C@H](NC(=O)[C@@H]1C[C@@H]2CCCC[C@@H]2N1C(=O)[C@@H](NC(=O)[C@@H](NC(=O)c1ccccn1)C1CCCCC1)C(C)(C)C)C(=O)C(=O)NC1CC1 6.28

[a] CCC[C@H](NC(=O)[C@@H]1[C@H]2CCC[C@H]2CN1C(=O)[C@@H](NC(=O)[C@@H](NC(=O)c1cnccn1)C1CCCCC1)C(C)(C)C)C(=O)C(=O)NC1CC1
[b] CCC[C@H](NC(=O)[C@@H]1C[C@@H]2CCCC[C@@H]2N1C(=O)[C@@H](NC(=O)[C@H](C1CCCCC1)N1C(=O)c2ccccc2C1=O)C(C)(C)C)C(=O)C(=O)NC1CC1
Dear colleague, could you let me know whether a or b has the lower recorded pKi? Thanks. Pick one; state its label.
b
(b: 6.43, a: 7.40)

====

# measurement.description: Cytotoxicity against Huh7 cells by MTS assay
# Type: cell-based, Huh-7
# experimental.setup: human
Reported CC50 by item:

Here is how some molecules turned out for CC50.
CCC[C@H](NC(=O)[C@@H]1[C@H]2CCC[C@H]2CN1C(=O)[C@@H](NC(=O)[C@@H](NC(=O)c1cnccn1)C1CCCCC1)C(C)(C)C)C(=O)C(=O)NC1CC1 82 µM
CCC[C@H](NC(=O)[C@@H]1C[C@@H]2CCCC[C@@H]2N1C(=O)[C@@H](NC(=O)[C@@H](NC(=O)c1cc([N+](=O)[O-])c[nH]1)C1CCCCC1)C(C)(C)C)C(=O)C(=O)NC1CC1 > 100 µM
CCC[C@H](NC(=O)[C@@H]1C[C@@H]2CCCC[C@@H]2N1C(=O)[C@@H](NC(=O)[C@@H](NC(=O)C(=O)NC1CC1)C1CCCCC1)C(C)(C)C)C(=O)C(=O)NC1CC1 > 100 µM

Output measured CC50 for this item: `CCC[C@H](NC(=O)[C@@H]1C[C@@H]2CCCC[C@@H]2N1C(=O)[C@@H](NC(=O)[C@@H](NC(=O)C(=O)NCc1ccccc1)C1CCCCC1)C(C)(C)C)C(=O)C(=O)NC1CC1`
> 100 µM

Output measured CC50 for this item: `CCC[C@H](NC(=O)[C@@H]1C[C@@H]2CCCC[C@@H]2N1C(=O)[C@@H](NC(=O)[C@@H](NC(=O)c1cnccn1)C1CCCCC1)C(C)(C)C)C(=O)C(=O)NC1CC1`
47 µM

====

# measurement.description: Inhibition of HCV NS3 4A protease
# Parameters: species or system Hepacivirus hominis
measured.attribute: Ki (nM)

[P] CCC[C@H](NC(=O)[C@@H]1C[C@@H]2CCCC[C@@H]2N1C(=O)[C@@H](NC(=O)[C@@H](NC(=O)c1cccnc1)C1CCCCC1)C(C)(C)C)C(=O)C(=O)NC1CC1
[Q] CCC[C@H](NC(=O)[C@@H]1C[C@@H]2CCCC[C@@H]2N1C(=O)[C@@H](NC(=O)[C@@H](NC(=O)C(=O)NCc1ccccc1)C1CCCCC1)C(C)(C)C)C(=O)C(=O)NC1CC1
Dear colleague, could you let me know whether P or Q has the lower recorded Ki? Thanks. Pick one; state its label.
Q
